assay: Plasma concentration in rat at 3 mg/kg, po measured after 5 hrs; type: ADME, organism-based

{"columns": ["Mol Smiles", "concentration at 5 h"],
 "data": [
  ["C[C@@]1(c2ccc(F)cc2F)C[C@@H](c2cncnc2)SC(N)=N1", "1800 nM"]
]}

---

biological target: UniProt P11712; assay: Inhibition of recombinant human CYP2C9 preincubated for 10 mins followed by addition of MFC as substrate measured after 45 mins
Sequence (P11712 whole entry): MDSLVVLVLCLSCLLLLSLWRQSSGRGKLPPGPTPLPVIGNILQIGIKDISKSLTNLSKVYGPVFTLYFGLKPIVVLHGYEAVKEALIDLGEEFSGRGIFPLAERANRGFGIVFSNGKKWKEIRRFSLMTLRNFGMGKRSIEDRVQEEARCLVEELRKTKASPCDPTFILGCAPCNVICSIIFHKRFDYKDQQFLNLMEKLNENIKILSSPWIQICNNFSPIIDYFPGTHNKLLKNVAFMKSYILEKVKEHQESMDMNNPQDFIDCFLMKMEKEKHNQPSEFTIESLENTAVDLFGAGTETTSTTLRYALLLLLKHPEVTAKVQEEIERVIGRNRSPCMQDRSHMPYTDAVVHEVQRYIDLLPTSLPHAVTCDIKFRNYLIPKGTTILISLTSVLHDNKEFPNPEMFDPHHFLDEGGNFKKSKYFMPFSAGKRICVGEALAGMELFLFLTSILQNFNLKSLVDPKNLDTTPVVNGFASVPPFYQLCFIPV

{"columns": ["Mol Smiles", "IC50"],
 "data": [
  ["C[C@@]1(c2ccc(F)cc2F)C[C@@H](c2cncnc2)SC(N)=N1", "> 20 µM"]
]}

---

test: Oral bioavailability in rat at 10 mg/kg measured after 5 hrs; assay type: ADME, organism-based; details: in vivo

{"columns": ["Mol Smiles", "bioavailability"],
 "data": [
  ["C[C@@]1(c2ccc(F)cc2F)C[C@@H](c2cncnc2)SC(N)=N1", "> 100%"]
]}
